Conditions: in water, 313.15 K
measured-quantity: solubility (mole fraction)

# smiles-data, measured-quantity, reported
records = [
    ("Oc1ccc(/C=C/c2cc(O)cc(O)c2)cc1", "solubility (mole fraction)", "8.03e-06"),
]

----------
Details: in transcutol, 288.15 K

# smiles-data, solubility (mole fraction)
records = [
    ("Oc1ccc(/C=C/c2cc(O)cc(O)c2)cc1", 0.148),
]

----------
Settings: in transcutol, 298.15 K

# smiles-data, solubility (mole fraction)
rows = [
    ("Oc1ccc(/C=C/c2cc(O)cc(O)c2)cc1", 0.153),
]

----------
Details: in water, 293.15 K

# smiles-data, solubility (mole fraction)
data = [
    ("Oc1ccc(/C=C/c2cc(O)cc(O)c2)cc1", "1.91e-06"),
]
